Test system: SW480 colon carcinoma cells
Experiment: Cell viability assay (CellTiter-Glo) in SW480 cells
Type: cell-based, human
Settings: Homo sapiens, 96 h, four days
attribute.measured: EC50 (µM)
Numbers only, in µM.

Problem: Look up EC50: C[C@H]1C[C@H](NC(=O)c2n[nH]c3ccc(-c4cnn(C)c4)cc23)CCN1CC(C)(C)F [Compound 44]
Solution: 1.52

###

Tested on: Wnt activity (Sp5-Luc reporter, TCF/LEF binding sites) in SW480 colon carcinoma cells
Assay: Screening assay for Wnt activity: Sp5-Luc reporter gene assay in SW480 cells
Type: cell-based, human
Details: 36 to 48 hours
attribute.measured: EC50

Problem: Please provide the recorded EC50 for CC(C)(F)CN1CCC(n2cc(-c3ccc4[nH]nc(C(=O)Nc5ccc(OC(F)F)cc5)c4c3)cn2)CC1 [Compound 61] , tested on Wnt activity (Sp5-Luc reporter, TCF/LEF binding sites) in SW480 colon carcinoma cells.
Solution: > 10 µM

Measured values drawn from patent US11713320B2 for this set.
